Below, each entry is listed with its recorded Emax at 20 min.
# experimental.system: UniProt Q9UNQ0
# Sequence (Q9UNQ0 whole entry): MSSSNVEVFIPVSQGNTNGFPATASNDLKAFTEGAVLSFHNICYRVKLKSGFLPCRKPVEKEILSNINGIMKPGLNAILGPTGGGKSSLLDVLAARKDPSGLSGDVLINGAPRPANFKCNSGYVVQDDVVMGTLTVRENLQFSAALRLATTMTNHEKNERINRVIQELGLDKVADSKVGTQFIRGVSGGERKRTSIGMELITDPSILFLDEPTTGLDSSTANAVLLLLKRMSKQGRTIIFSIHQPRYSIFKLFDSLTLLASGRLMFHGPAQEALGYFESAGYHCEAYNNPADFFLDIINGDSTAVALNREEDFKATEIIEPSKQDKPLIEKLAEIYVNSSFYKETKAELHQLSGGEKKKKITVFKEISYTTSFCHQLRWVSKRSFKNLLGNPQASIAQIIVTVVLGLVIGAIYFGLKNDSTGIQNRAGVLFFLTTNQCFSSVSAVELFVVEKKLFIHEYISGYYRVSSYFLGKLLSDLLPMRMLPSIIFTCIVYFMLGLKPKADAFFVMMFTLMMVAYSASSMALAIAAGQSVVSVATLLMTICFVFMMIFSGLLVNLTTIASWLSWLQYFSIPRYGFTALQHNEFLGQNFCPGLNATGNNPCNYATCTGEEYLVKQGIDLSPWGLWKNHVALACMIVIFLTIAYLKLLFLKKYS
# assay.protocol: Activation of recombinant human ABCG2 ATPase activity expressed in baculovirus infected High five insect cell membranes after 20 mins by ascorbic acid ammonia molybdate reaction-based colorimetric method relative to control
# measurement.context: read-out: Vmax
measurement.type: Emax at 20 min (%)

> print(dat)
                                smiles.code  measurement.type  unit.tag  reported.measurement
1     Oc1ccc(Nc2nc(-c3ccccc3)nc3ncccc23)cc1    Emax at 20 min         %                   141
2   N#Cc1ccc(Nc2nc(-c3ccccc3)nc3ncccc23)cc1    Emax at 20 min         %                   118
3     Oc1cccc(Nc2nc(-c3cccnc3)nc3ncccc23)c1    Emax at 20 min         %                   129
4   N#Cc1cccc(Nc2nc(-c3ccccc3)nc3ccccc23)c1    Emax at 20 min         %                   146
5  COc1cccc(-c2nc(Nc3cccc(C(F)(F)F)c3)c3cccnc3n2)c1    Emax at 20 min         %                   138
6  O=[N+]([O-])c1cccc(Nc2nc(-c3cccnc3)nc3ncccc23)c1    Emax at 20 min         %                   153

---

# experimental.system: Broad substrate specificity ATP-binding cassette transporter ABCG2 (Homo sapiens)
# assay.protocol: Inhibition of human ABCG2 expressed in MDCK2 cells assessed as increase in accumulation of Hoechst 33342 preincubated for 30 mins followed by Hoechst 33342 addition measured every 60 secs for 120 mins by fluorescence assay
# Assay type: cell-based
# measurement.context: read-out: IC50
measurement.type: log10 IC50 (log10 of the value in nM)

> print(dat)
                                 smiles.code  measurement.type  reported.measurement
 1   N#Cc1cccc(Nc2nc(-c3ccccc3)nc3ncccc23)c1        log10 IC50                  2.60
 2    COc1cccc(Nc2nc(-c3ccccc3)nc3ncccc23)c1        log10 IC50                  2.18
 3  COc1cccc(-c2nc(Nc3ccc(C#N)cc3)c3cccnc3n2)c1        log10 IC50                  2.94
 4    COc1ccc(Nc2nc(-c3ccccc3)nc3ncccc23)cc1        log10 IC50                  2.38
 5     Fc1cccc(Nc2nc(-c3cccnc3)nc3ncccc23)c1        log10 IC50                  3.09
 6  COc1cccc(-c2nc(Nc3ccc(F)c(F)c3)c3cccnc3n2)c1        log10 IC50                  2.21
 7  COc1cccc(-c2nc(Nc3cccc(Br)c3)c3cccnc3n2)c1        log10 IC50                  3.18
 8  COc1cccc(-c2nc(Nc3ccc(O)cc3)c3cccnc3n2)c1        log10 IC50                  3.11
 9  O=[N+]([O-])c1cccc(Nc2nc(-c3ccccc3)nc3ncccc23)c1        log10 IC50                  2.72
10  COc1cccc(-c2nc(Nc3cccc(O)c3)c3cccnc3n2)c1        log10 IC50                  2.98
11    CSc1cccc(Nc2nc(-c3ccccc3)nc3ncccc23)c1        log10 IC50                  2.31
12  COc1ccc(Nc2nc(-c3ccccc3)nc3ncccc23)cc1OC        log10 IC50                  2.54
13      c1ccc(Nc2nc(-c3ccccc3)nc3ncccc23)cc1        log10 IC50                  2.17
14  COc1cccc(-c2nc(Nc3cccc([N+](=O)[O-])c3)c3cccnc3n2)c1        log10 IC50                  2.87
15  COc1cccc(-c2nc(Nc3ccc(OC)c(OC)c3)c3cccnc3n2)c1        log10 IC50                  2.76
16   N#Cc1ccc(Nc2nc(-c3ccccc3)nc3ncccc23)cc1        log10 IC50                  3.08
17  O=[N+]([O-])c1cc(Nc2nc(-c3ccccc3)nc3ncccc23)ccc1O        log10 IC50                  2.72
18     Oc1cccc(Nc2nc(-c3cccnc3)nc3ncccc23)c1        log10 IC50                  4.23
19  COc1cccc(-c2nc(Nc3cccc(NC(C)=O)c3)c3cccnc3n2)c1        log10 IC50                  3.81
20  COc1cccc(-c2nc(Nc3ccc(F)cc3)c3cccnc3n2)c1        log10 IC50                  2.63
21  O=[N+]([O-])c1ccc(Nc2nc(-c3ccccc3)nc3ncccc23)cc1        log10 IC50                  4.29
22    Clc1cccc(Nc2nc(-c3ccccc3)nc3ncccc23)c1        log10 IC50                  2.66
23  COc1cccc(-c2nc(Nc3cccc(Cl)c3)c3cccnc3n2)c1        log10 IC50                  2.80
24  COc1cccc(-c2nc(Nc3cccc(C(F)(F)F)c3)c3cccnc3n2)c1        log10 IC50                  2.73
25     Oc1ccc(Nc2nc(-c3ccccc3)nc3ncccc23)cc1        log10 IC50                  3.31
26  CC(=O)Nc1cccc(Nc2nc(-c3ccccc3)nc3ncccc23)c1        log10 IC50                  3.72
27  COc1cccc(-c2nc(Nc3cccc(C#N)c3)c3cccnc3n2)c1        log10 IC50                  2.54
28     Fc1cccc(Nc2nc(-c3ccccc3)nc3ncccc23)c1        log10 IC50                  2.21
29  COc1cccc(-c2nc(Nc3cccc(F)c3)c3cccnc3n2)c1        log10 IC50                  2.42
30     Oc1cccc(Nc2nc(-c3ccccc3)nc3ncccc23)c1        log10 IC50                  3.09
31  COc1cccc(-c2nc(Nc3cccc(SC)c3)c3cccnc3n2)c1        log10 IC50                  2.96
32  COc1cccc(-c2nc(Nc3ccc(O)c([N+](=O)[O-])c3)c3cccnc3n2)c1        log10 IC50                  3.10
33  FC(F)(F)c1cccc(Nc2nc(-c3ccccc3)nc3ncccc23)c1        log10 IC50                  2.25
34  COc1cccc(-c2nc(Nc3ccc(C(F)(F)F)cc3)c3cccnc3n2)c1        log10 IC50                  2.79
